# Tested on: L1210 leukemia ip in BDF1 mice, survival T/C
# PROCEDURE_TEXT: NCI In Vivo Anticancer Drug Screen. Data for tumor model L1210 Leukemia (intraperitoneal) in B6D2F1 (BDF1) mice
# ASSAY_SETUP: endpoint: mean survival time; dose: 100.0 mg/kg/injection; schedule: Q01DX009 (ip); vehicle: saline; higher = longer survival
Inconclusive results and toxic doses are left out.
PROPERTY_NAME: T/C

{"MOLECULE": "c1ccc2c3c(ccc2c1)Sc1ccc2ccccc2c1N3", "TARGET_SYSTEM": "L1210 leukemia ip in BDF1 mice, survival T/C", "T/C": "102 % of control"}
{"MOLECULE": "C=C(Br)C(C)N (stereo not drawn)", "TARGET_SYSTEM": "L1210 leukemia ip in BDF1 mice, survival T/C", "T/C": "104 % of control"}
{"MOLECULE": "Cc1cc(=O)[nH]c2c1CCC2", "TARGET_SYSTEM": "L1210 leukemia ip in BDF1 mice, survival T/C", "T/C": "95 % of control"}
{"MOLECULE": "C[C@]12CCC(=O)C=C1CC[C@@H]1[C@@H]2[C@@H](O)C[C@@]2(C)[C@H]1CC[C@]2(C)O", "TARGET_SYSTEM": "L1210 leukemia ip in BDF1 mice, survival T/C", "T/C": "97 % of control"}
{"MOLECULE": "O=C(OCCN1CCCCC1)C(c1ccccc1)C1(O)CCCC1 (stereo not drawn)", "TARGET_SYSTEM": "L1210 leukemia ip in BDF1 mice, survival T/C", "T/C": "116 % of control"}
{"MOLECULE": "Cc1ccc(C)c(NC(=O)Oc2ccc(-c3ccccc3)cc2)c1", "TARGET_SYSTEM": "L1210 leukemia ip in BDF1 mice, survival T/C", "T/C": "96 % of control"}

Look up T/C for the entries below, preserving their order.
1. CC(C)C1CCC(C)C(C(O)(C(F)(F)F)C(F)(F)F)C1=O (stereo not drawn)
2. CCCCCCCCCCCCOP(N)(=O)OCCCCCCCCCCCC
3. CCOP(=O)(OCC)N(C(=O)O)C1CCCCC1

["114 % of control", "88 % of control", "109 % of control"]

List T/C for every entry below, keeping the order given.
1. N=C(N)CC(=O)CC(=N)N
2. N#CC1CS(=O)(=O)C1
3. O=C1OC(=O)c2c(Br)c(Br)c(Br)c(Br)c21

["91 % of control", "108 % of control", "103 % of control"]

Consider the molecule CSCCCN and give its measured T/C.
99 % of control

----------
# Tested on: L1210 leukemia ip in BDF1 mice, survival T/C
# PROCEDURE_TEXT: NCI In Vivo Anticancer Drug Screen. Data for tumor model L1210 Leukemia (intraperitoneal) in B6D2F1 (BDF1) mice
# ASSAY_SETUP: endpoint: mean survival time; dose: 400.0 mg/kg/injection; schedule: Q01DX001 (ip); vehicle: carboxymethylcellulose (CMC); higher = longer survival
Toxic doses and inconclusive results are not listed.
PROPERTY_NAME: T/C

Worked cases, answers included:
{"MOLECULE": "CCCC(=O)c1c(O)cc(O)cc1O", "T/C": "93 % of control"}
{"MOLECULE": "COC(=O)c1ccc(O)c(Cl)c1", "T/C": "91 % of control"}
{"MOLECULE": "NC1=NC(=O)C(c2ccccc2)(c2ccccc2)S1", "T/C": "91 % of control"}
{"MOLECULE": "S=C(S)NC1c2ccccc2-c2ccccc21 (tested in a mixture with another compound)", "T/C": "96 % of control"}
{"MOLECULE": "Cc1cc2c(cc1C)-c1ccccc1C2=O", "T/C": "96 % of control"}

Note: attention shifts to another entry.
Entry CC1(OC(=O)c2ccc([N+](=O)[O-])cc2)CC2CC1c1ccccc12 (stereo unspecified) has what T/C?
90 % of control

----------
Please respond with reported T/C for every item in the list.
# System: L1210 leukemia ip in BDF1 mice, survival T/C
# PROCEDURE_TEXT: NCI In Vivo Anticancer Drug Screen. Data for tumor model L1210 Leukemia (intraperitoneal) in B6D2F1 (BDF1) mice
# ASSAY_SETUP: endpoint: mean survival time; dose: 100.0 mg/kg/injection; schedule: Q01DX001 (ip); vehicle: other; higher = longer survival
Toxic doses and inconclusive results are not listed.

{"MOLECULE": "O=C(OCCOC(=O)c1cccc([N+](=O)[O-])c1)c1cccc([N+](=O)[O-])c1", "REPORTED_VALUE": "95 % of control"}
{"MOLECULE": "Cc1ccc([Si](O)(c2ccc(C)cc2)c2ccc(C)cc2)cc1", "REPORTED_VALUE": "97 % of control"}
{"MOLECULE": "NC(=S)c1[nH]cnc1N", "REPORTED_VALUE": "98 % of control"}
{"MOLECULE": "CCCCCCCCCCCCOc1ccc(C(=O)O)cc1", "REPORTED_VALUE": "100 % of control"}
{"MOLECULE": "COc1c(OC)c(OC)c2c(=O)cc(-c3ccc4c(c3)OCO4)oc2c1OC", "REPORTED_VALUE": "100 % of control"}

For each of the molecules below, note its T/C.
1. CCOC(=O)Nc1cc(Cl)c([N+](=O)[O-])c(N)n1
2. CCC(C)COC(=O)c1cccc2c1-c1ccccc1C2=O (stereo not given)
3. CCC(=O)OC1CCC2(C)C(=CCC3C2CCC2(C)C(C(C)CCCC(C)C)CCC32)C1 (stereo not given)

101 % of control
98 % of control
91 % of control

Below are 2 molecules. Give each one its T/C.
1. Cn1c(=O)c2c(nc(Cc3ccc(NC(=O)c4ccc(C(=O)Nc5ccc(Cc6nc7c(c(=O)n(C)c(=O)n7C)n6C)cc5)cc4)cc3)n2C)n(C)c1=O
2. CC(=O)Nc1ccc(NC(=O)c2ccc(C(=O)Nc3ccc(NC(C)=O)cc3)cc2)cc1

1. 94 % of control
2. 98 % of control

----------
# Tested on: L1210 leukemia ip in BDF1 mice, survival T/C
# PROCEDURE_TEXT: NCI In Vivo Anticancer Drug Screen. Data for tumor model L1210 Leukemia (intraperitoneal) in B6D2F1 (BDF1) mice
# ASSAY_SETUP: endpoint: mean survival time; dose: 100.0 mg/kg/injection; schedule: Q01DX009 (ip); vehicle: saline; higher = longer survival
Toxic doses and inconclusive results are not listed.
Hi there, I'd appreciate the recorded T/C for every entry that follows.

{"MOLECULE": "O=[N+]([O-])c1ccc(-c2ncc3cnccn23)cc1", "T/C": "90 % of control"}

// batch mode: one T/C value per listed entry
1. CC[N+](CC)(CC)CCNC(C)=O
2. O=C1/C(=C/c2ccco2)CC2CCCCC12 (centres undefined)
3. CCC(C)C(CCN(C)C)(CNC(=O)CN(CC)CC)c1cccc2ccccc12 (centres undefined)
4. CC(O)C(=O)OCCOc1ccc(Cl)cc1Cl (centres undefined)
5. CC(NC(=O)OCc1ccccc1)C(=O)ON1C(=O)CCC1=O (centres undefined)
6. O=C(CCl)NCc1cnccn1
7. C[N+](C)(C)CC[N+](C)(C)C

["111 % of control", "102 % of control", "96 % of control", "91 % of control", "95 % of control", "107 % of control", "108 % of control"]

Hello, I would appreciate it if you could give T/C for each entry below.
1. NC(=O)NCCNC(N)=O
2. COc1cc(Cl)ccc1NC(=O)Oc1ccc(NC(C)=O)cc1
3. S=c1[nH][nH]c(=S)s1
4. CCCCCCCCN1C(=O)C2C(C1=O)C1(Cl)C(Cl)=C(Cl)C2(Cl)C1(Cl)Cl (centres undefined)
5. Nc1nc2c(c(-c3ccccc3)n1)CN(c1ccc(Br)cc1)C2=O
6. O=C1OC2C(I)C3CCC2C1C3 (centres undefined)
7. CC(C)CN(CC(=O)N1CC(=O)Nc2ccccc21)CC(C)C
8. c1ccc(C[N+](Cc2ccccc2)=C2CCCCC2)cc1

108 % of control
110 % of control
97 % of control
95 % of control
92 % of control
98 % of control
94 % of control
100 % of control

----------
# Test system: L1210 leukemia ip in BDF1 mice, survival T/C
# PROCEDURE_TEXT: NCI In Vivo Anticancer Drug Screen. Data for tumor model L1210 Leukemia (intraperitoneal) in B6D2F1 (BDF1) mice
# ASSAY_SETUP: endpoint: mean survival time; dose: 400.0 mg/kg/injection; schedule: Q04DX003 (ip); vehicle: Klucel (hydroxypropylcellulose) (HPC); higher = longer survival
Inconclusive results and toxic doses are left out.
What T/C was measured for each of the following?

{"COMPOUND": "Cc1ccc(C(C)C)c2sc(=N)oc12", "T/C": "98 % of control"}
{"COMPOUND": "O=C(O)C1CCCN(C(=O)OCc2ccccc2)C1 (stereo not drawn)", "T/C": "97 % of control"}

Could you tell me T/C for each of these compounds? They are listed below.
1. Oc1ccccc1OCc1ccccc1
2. O=C(Nc1ccccc1Cl)N(Cc1ccccc1)c1ccccc1
3. CCCCCCCCCCCCCCCCCCNC(=S)N(C)C
4. CC(=O)NOCc1ccc([N+](=O)[O-])cc1

1: 100 % of control; 2: 96 % of control; 3: 89 % of control; 4: 97 % of control

Hi, could you look up T/C for each item in my list?
1. Cc1cc(Cl)c(Cl)cc1NC(=O)/C=C\c1ccccc1
2. Cc1ccc(S(=O)(=O)N(C)c2ccc(I)c(Cl)c2Cl)cc1

1. 97 % of control
2. 98 % of control
